EXPERIMENTAL_SYSTEM: PPARγ (Homo sapiens)
Construct: Full-length PPARs plasmid DNA, reporter DNA, which has luciferase activity
Sequence (P37231 whole entry, species assumed): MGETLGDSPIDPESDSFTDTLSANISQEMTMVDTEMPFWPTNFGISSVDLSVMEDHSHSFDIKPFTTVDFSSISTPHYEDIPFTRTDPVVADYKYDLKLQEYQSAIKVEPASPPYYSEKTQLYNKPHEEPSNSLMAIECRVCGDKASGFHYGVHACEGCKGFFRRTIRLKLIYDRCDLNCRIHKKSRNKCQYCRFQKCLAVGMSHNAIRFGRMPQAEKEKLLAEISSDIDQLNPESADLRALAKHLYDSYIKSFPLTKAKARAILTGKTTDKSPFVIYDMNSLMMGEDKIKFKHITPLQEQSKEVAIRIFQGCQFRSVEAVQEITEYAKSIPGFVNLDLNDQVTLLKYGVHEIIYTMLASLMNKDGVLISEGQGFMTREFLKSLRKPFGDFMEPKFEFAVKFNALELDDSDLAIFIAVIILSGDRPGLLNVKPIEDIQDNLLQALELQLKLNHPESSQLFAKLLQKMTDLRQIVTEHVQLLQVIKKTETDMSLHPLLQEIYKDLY
ASSAY_PROTOCOL: Transfection assay (luciferase reporter, full-length PPARs plasmid DNA) in CV-1 cells
EXPERIMENTAL_CONTEXT: 24 hours treatment, luciferase calibrated with β-galactosidase

| COMPOUND_STRING | EXPERIMENTAL_SYSTEM | EC50 |
| --- | --- | --- |
| Cc1cc([Se]Cc2sc(-c3ccc(C(F)(F)F)cc3)nc2C)ccc1OCC(=O)O | PPARγ (Homo sapiens) | > 10 µM |

====

EXPERIMENTAL_SYSTEM: PPARδ (Homo sapiens, UniProt Q03181)
Construct: Full-length PPARs plasmid DNA, reporter DNA, which has luciferase activity
Sequence (Q03181 whole entry, species assumed): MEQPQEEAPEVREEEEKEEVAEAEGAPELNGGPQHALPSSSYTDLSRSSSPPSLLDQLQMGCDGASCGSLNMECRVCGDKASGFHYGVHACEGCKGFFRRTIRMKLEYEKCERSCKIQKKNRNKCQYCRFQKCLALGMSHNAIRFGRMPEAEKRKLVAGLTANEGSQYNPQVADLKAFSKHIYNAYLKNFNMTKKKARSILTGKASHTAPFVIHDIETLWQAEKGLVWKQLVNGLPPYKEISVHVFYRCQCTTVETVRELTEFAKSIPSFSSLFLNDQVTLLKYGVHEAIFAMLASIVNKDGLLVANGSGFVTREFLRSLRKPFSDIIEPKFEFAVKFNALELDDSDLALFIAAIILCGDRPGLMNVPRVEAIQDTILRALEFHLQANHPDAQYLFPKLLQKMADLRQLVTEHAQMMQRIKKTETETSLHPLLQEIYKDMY
ASSAY_PROTOCOL: Transfection assay (luciferase reporter, full-length PPARs plasmid DNA) in CV-1 cells
EXPERIMENTAL_CONTEXT: 24 hours treatment, luciferase calibrated with β-galactosidase
pEC50: −log10 of the molar value.

| COMPOUND | pEC50 |
| --- | --- |
| Cc1cc([Se]Cc2sc(-c3ccc(C(F)(F)F)cc3)nc2C)ccc1OCC(=O)O [HK101225] | 8.73 |
